Molecular target: T1, IL-6/soluble IL-6 receptor complex (human, UniProt P05231 30-212; P08887 20-358, limits assumed)
T1 construct: also called IL-6/sIL-6R complex; IL-6/sIL-6R
Assay: ELISA, coated Fc fusion, IL-6 + sIL-6R titrated, anti-sIL-6R detection
attributeMeasured: binding result

binder="sgp130(D1-D3)S3-Fc (Fc fusion, D4-D6 replaced by three GGGGS repeats; No tags; not shown: IgG-Fc part; its beginning is printed as 'SCD'; detected with an anti-human IgG (Fc) antibody) ELLDPCGYISPESPVVQLHSNFTAVCVLKEKCMDYFHVNANYIVWKTNHFTIPKEQYTIINRTASSVTFTDIASLNIQLTCNILTFGQLEQNVYGITIISGLPPEKPKNLSCIVNEGKKMRCEWDGGRETHLETNFTLKSEWATHKFADCKAKRDTPTSCTVDYSTVYFVNIEVWVEAENALGKVTSDHINFDPVYKVKPNPPHNLSVINSEELSSILKLTWTNPSIKSVIILKYNIQYRTKDASTWSQIPPEDTASTRSSFTVQDLKPFTEYVFRIRCMKEDGKGYWSDWSEEASGITYEDGGGGSGGGGSGGGGS" result=binds
